# Measured On: Recombinant human mPGES-1 (Homo sapiens)
# Construct: made in house; host or cells: CHO cells (crude microsomal fractions)
# Sequence (O14684 1-152): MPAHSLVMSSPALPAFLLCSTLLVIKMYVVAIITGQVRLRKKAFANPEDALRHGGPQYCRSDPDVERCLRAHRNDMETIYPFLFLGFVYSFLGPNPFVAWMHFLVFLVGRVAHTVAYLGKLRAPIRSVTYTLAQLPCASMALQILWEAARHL
# Experimental Protocol: In-vitro screening of mPGES-1 inhibitors (inhibition of PGE2 formation from PGH2, HTRF detection)
# Assay type: biochemical
# Condition Label: 10 μM test compound; mPGES-1 enzyme, crude microsomal fractions; read-out: Percentage inhibition at 10 μM
Experimental Endpoint: inhibition at 10 µM (%)

O=C(NC1(c2ccccc2C(F)(F)F)CC1)c1ccc(-n2nc(-c3c(F)cccc3Cl)[nH]c2=O)cc1 83.1
N#Cc1cnc(C(F)F)c(-c2nn(-c3ccc(C(F)(F)F)cc3)c(=O)[nH]2)c1 85.5
COc1cc(-n2nc(-c3cc(CNC(=O)C4CC4)ccc3Cl)[nH]c2=O)ccc1C(=O)Nc1cccc(C(F)(F)F)c1 98.3
Cn1ccnc1C(=O)NCc1ccc(Cl)c(-c2nn(-c3ccc(C(F)(F)F)cc3)c(=O)[nH]2)c1 95.1
COCC(C)(C)C(=O)NCc1ccc(Cl)c(-c2nn(-c3ccc(C(F)(F)F)cc3)c(=O)[nH]2)c1 93.5
O=c1[nH]c(-c2c(F)cccc2Cl)nn1-c1ccc(C#Cc2ccc(Cl)cc2F)cc1 87.7
CC(C)(C)C(=O)NCc1cc(-c2nn(-c3ccc(F)c(C(F)(F)F)c3)c(=O)[nH]2)c(Cl)cc1F 89.3
